biological target: MAGI3_2, Q5TCQ9; assay: holdup assay; set-up: key: below the threshold = too weak to quantify, mostly under pKd 3.1 to 4; details: plain residues with an end cap or a label only (N-terminal biotin on a linker: ado-ado)
Sequence (Q5TCQ9 398-503): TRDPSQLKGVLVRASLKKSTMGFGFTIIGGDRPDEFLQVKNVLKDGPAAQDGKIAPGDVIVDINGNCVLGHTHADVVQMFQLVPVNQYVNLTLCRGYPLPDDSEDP

>  <BINDER>
IKAIVDLTGL [TRAF2, Q12933]

>  <pKd>
below the threshold

$$$$
>  <BINDER>
RRISSLESEV [GRIN2C, Q14957]

>  <pKd>
4.96

$$$$
>  <BINDER>
SNAGNTATKA [NOSTRIN, Q8IVI9]

>  <pKd>
below the threshold

$$$$
>  <BINDER>
KKAPTNEFYA [SDC4, P31431]

>  <pKd>
below the threshold

$$$$
